Please respond with reported Ki for every item in the list.
biological target: Factor Xa; assay: chromogenic inhibition assay
Primed or numbered codes have the meaning given here. *: point of attachment. kt = C-terminal ketothiazole, c1csc(*)n1; kt″ = ketothiazole, c1csc(*)n1
Numbers only, in nM.

>  <BINDER>
Ac-KQLR-{kt″} (SMILES CC(=O)N[C@@H](CCCCN)C(=O)N[C@@H](CCC(N)=O)C(=O)N[C@@H](CC(C)C)C(=O)N[C@@H](CCCNC(=N)N)C(=O)c1nccs1) [Ac-KQLR(SEQ ID NO: 1)-kt]

>  <Ki [nM]>
170

$$$$

# map each binder to its Ki
1. Ac-SWLR-kt (SMILES CC(=O)N[C@@H](CO)C(=O)N[C@@H](Cc1c[nH]c2ccccc12)C(=O)N[C@@H](CC(C)C)C(=O)N[C@@H](CCCNC(=N)N)C(=O)c1nccs1) [Ac-SWLR(SEQ ID NO: 17)-kt]
2. Ac-SKFR-kt (SMILES CC(=O)N[C@@H](CO)C(=O)N[C@@H](CCCCN)C(=O)N[C@@H](Cc1ccccc1)C(=O)N[C@@H](CCCNC(=N)N)C(=O)c1nccs1) [Ac-SKFR(SEQ ID NO: 13)-kt]

[out]
759
530
